# tgt: CDK2/cyclinE (h) (Homo sapiens, UniProt P24941)
# protocol: Kinase profiling C3.4 CDK2/cyclinE human
# Type: biochemical
# setup conditions: test concentration of 10^−6 M
reported metric: C3.4 score

Illustrative cases are given below, each with its answer.
O=C1CCN2CCN(CC2)Cc2cccc(c2)Nc2ncnc(n2)-c2ccnc(c2)CCCN1 [Compound 35] = 4 (Score 4 = >80% inhibition)
CCN1CCCc2cc(ccn2)-c2ncnc(n2)Nc2cccc(c2)CCNC(=O)C1 [Compound 30] = 4 (Score 4 = >80% inhibition)
O=C1NCCCc2cc(ccn2)-c2ncnc(n2)Nc2cc(Cl)cc(c2)CN2CCCC1C2 (centres unmarked) [Compound 39] = 3 (Score 3 = 60-80% inhibition)
CCN1CC(=O)NCCCc2cc(ccn2)-c2ncnc(n2)Nc2cc(Cl)cc(c2)C1 [Compound 34] = 4 (Score 4 = >80% inhibition)
O=C1NCCCc2cc(ccn2)-c2ncnc(n2)Nc2cccc(c2)CN2CCCC1C2 (centres unmarked) [Compound 15] = 2 (Score 2 = 30-60% inhibition)

// recorded C3.4 score for O=C1CCN2CCN(CC2)Cc2cc(Cl)cc(c2)Nc2ncnc(n2)-c2ccnc(c2)CCCN1 [Compound 37] : 4 (Score 4 = >80% inhibition)

// recorded C3.4 score for CN1CC(=O)NCCCc2cc(ccn2)-c2ncnc(n2)Nc2cc(Cl)ccc2C1 [Compound 31] : 3 (Score 3 = 60-80% inhibition)

// recorded C3.4 score for O=C1NCCCNc2cc(ccn2)-c2ncnc(n2)Nc2cccc(c2)CN2CCC[C@@H]12 [Compound 21] : 4 (Score 4 = >80% inhibition)

// recorded C3.4 score for O=C1NCCCc2cc(ccn2)-c2ncnc(n2)Nc2cc(Cl)cc(c2)CN2CCC[C@@H]12 [Compound 38] : 4 (Score 4 = >80% inhibition)

// recorded C3.4 score for CN1Cc2cccc(c2)Nc2ncnc(n2)-c2ccnc(c2)NCCCNC(=O)CCN2CCC1CC2 [Compound 23] : 4 (Score 4 = >80% inhibition)

// recorded C3.4 score for CN1CC(=O)NC/C(Cl)=C/c2cc(ccn2)-c2ncnc(n2)Nc2cccc(c2)C1 [Compound 2] : 4 (Score 4 = >80% inhibition)
